tested on: HS 578T breast; experiment: NCI-60 one-dose screen, 48 h (100 = growth as untreated, 0 = no growth, -100 = all killed); details: 10 µM unless noted
Compounds without any hit were thinned out: in the full panel of roughly 83,000, 20% have a hit.
Assign Y to entries whose growth meets or exceeds 80%; assign N to the rest.

Look over these answered cases.
- Mol: "NNC(=S)N/N=C/c1ccccn1"
  Class Assignment: "N"
- Mol: "COc1cccc(Nc2ccnc3[nH]c4ccc([N+](=O)[O-])cc4c23)c1"
  Class Assignment: "N"
- Mol: "CCOC(=O)n1cc(-c2nonc2-c2cn(C)c3ccccc23)c2ccccc21"
  Class Assignment: "N"
- Mol: "COc1cc(C#Cc2ccc(=O)oc2C#Cc2ccccc2)cc(OC)c1OC"
  Class Assignment: "Y"
- Mol: "CCOC(=O)c1c(NC(=O)CSc2n[nH]c3nc4ccccc4n23)sc(CC)c1C"
  Class Assignment: "Y"

stdin: Given Oc1c(Cl)cc(Cl)c2ccc(Cn3cc(-c4cccc(C(F)(F)F)c4)nn3)nc12 , state whether its growth is at least 80%.
stdout: N

stdin: Given Nc1ccc([N+](=O)[O-])cc1N=C/C=C/c1ccccc1 , state whether its growth is at least 80%.
stdout: N

stdin: Given CCSC1=CC(=O)c2ccccc2C1=O , state whether its growth is at least 80%.
stdout: Y

----------
tested on: IGROV1 ovarian; experiment: NCI-60 one-dose screen, 48 h; settings: 10 µM unless noted
About 83,000 compounds went through this panel and 20% of them were active in at least one assay; those are over-represented in the sample as a whole. Calls of active or inactive are those of the source. The calls were made as follows: active = growth percent below 10; inactive = the rest.
Your answer must be one of the following: active, inactive

- Compound: "CC1(C)CCC(S(=O)(=O)c2ccc3c(c2)/C(=N\\O)c2cc(S(=O)(=O)N4CCN(c5ccc(F)cc5O)CC4)ccc2-3)CC1"
  Class Assignment: "active"
- Compound: "CN1CCN(C(=O)c2cc(-c3ccc4ncnc(N5CCc6cc(F)c(Cl)cc65)c4c3)cnc2N)CC1"
  Class Assignment: "active"
- Compound: "C=CC1(C)C(O[Si](C)(C)C(C)(C)C)CC2C3OC(=O)NC31c1cccc3c1[C@H](C(=O)N3C)C2(C)C (some centres undefined)"
  Class Assignment: "inactive"

Consider now this further compound.
stdin: Which outcome did this test record for the compound COc1ccc2cc(-c3ccc(-c4ccc(C(=N)N)s4)s3)ccc2c1 ?
stdout: inactive

----------
system: MOLT-4 leukemia; experiment: NCI-60 one-dose screen, 48 h (100 = growth as untreated, 0 = no growth, -100 = all killed); settings: 10 µM unless noted
Compounds without any hit were thinned out: in the full panel of roughly 83,000, 20% have a hit.
Measurement Label: growth (%)
Give the value, in units of %, as a plain number.

Guide cases for growth, answers given:
- Compound: "CO[C@H](C(=O)[C@@H](O)[C@@H](C)O)[C@@H]1Cc2cc3cc(O[C@H]4C[C@@H](O[C@H]5C[C@@H](O)[C@H](O)C(C)O5)[C@H](O)C(C)O4)c(C)c(O)c3c(O)c2C(=O)[C@H]1O[C@H]1C[C@@H](O[C@H]2C[C@@H](O[C@H]3C[C@@H](OC)[C@H](O)C(C)O3)[C@@H](O)C(C)O2)C(O)(O)C(C)O1 (stereo partly drawn)"
  Target Under Test: "MOLT-4 leukemia"
  Output Unit: "%"
  growth: 18
- Compound: "COc1cc(C2C3=C(COC3=O)N(CCO)c3cc4c(cc32)OCCO4)cc(OC)c1OC (stereo not drawn)"
  Target Under Test: "MOLT-4 leukemia"
  Output Unit: "%"
  growth: 8.21

stdin: Value lookup for growth; key = C=CC(=O)N1CCN(c2ccc3cccc(NC(=O)c4cnc(C)cn4)c3n2)CC1
stdout: 35.7

stdin: Value lookup for growth; key = COc1cc(Nc2ncccc2NC(=O)c2cn(Cc3cccc(Oc4ccccc4)c3)nn2)cc(OC)c1
stdout: 59.6

stdin: Value lookup for growth; key = Clc1nn2c(Cn3cnc4c(NCc5ccccc5)ncnc43)nnc2c2ccccc12
stdout: 26.5
